These data points were gathered from ChEMBL document CHEMBL1140698.

# Assay method text: Metabolic stability in human liver microsome after 10 mins
# Assay type: ADME
# Test context: liver microsomes, read-out: Stability
In this section we review reported remaining at 10 min values for a set of compounds.

Smiles representation: CC[C@H](C)NC(=O)c1cn2ncnc(Nc3cc(C(=O)NOC)ccc3C)c2c1C
remaining at 10 min (%): 62
--
Smiles representation: CONC(=O)c1ccc(C)c(Nc2ncnn3cc(C(=O)N[C@@H](C)c4ccccc4)c(C)c23)c1
remaining at 10 min (%): 72
--
Smiles representation: CCNC(=O)c1cn2ncnc(Nc3cc(C(=O)NOC)ccc3C)c2c1C
remaining at 10 min (%): 69
--
Smiles representation: CCCNC(=O)c1cn2ncnc(Nc3cc(C(=O)NOC)ccc3C)c2c1C
remaining at 10 min (%): 83

----------
# Assay method text: Cmax in mouse at 5 mg/kg, iv or 10 mg/kg, po
# Format: ADME, organism-based
# Test context: in vivo
In this section we review reported Cmax values for a set of compounds.

Smiles representation: CCCNC(=O)c1cn2ncnc(Nc3cc(C(=O)NOC)ccc3C)c2c1C
Unit abbrev: µM
Cmax: 18

Smiles representation: CCNC(=O)c1cn2ncnc(Nc3cc(C(=O)NOC)ccc3C)c2c1C
Unit abbrev: µM
Cmax: 3.1

Smiles representation: CONC(=O)c1ccc(C)c(Nc2ncnn3cc(C(=O)N[C@@H](C)c4ccccc4)c(C)c23)c1
Unit abbrev: µM
Cmax: 3.7

----------
In this section we review reported remaining at 10 min values for a set of molecules.
# Assay method text: Metabolic stability in rat liver microsome after 10 mins
# Format: ADME
# Test context: liver microsomes, read-out: Stability

Smiles representation: CC[C@H](C)NC(=O)c1cn2ncnc(Nc3cc(C(=O)NOC)ccc3C)c2c1C
remaining at 10 min / %: 96
//
Smiles representation: CCNC(=O)c1cn2ncnc(Nc3cc(C(=O)NOC)ccc3C)c2c1C
remaining at 10 min / %: 100
//
Smiles representation: CONC(=O)c1ccc(C)c(Nc2ncnn3cc(C(=O)N[C@@H](C)c4ccccc4)c(C)c23)c1
remaining at 10 min / %: 90
//
Smiles representation: CCCNC(=O)c1cn2ncnc(Nc3cc(C(=O)NOC)ccc3C)c2c1C
remaining at 10 min / %: 82

----------
# Assay method text: AUC (0 to 4 hrs) in rat at 10 mg/kg, po
# Assay type: ADME, organism-based
# Design: time < 4 hr, dose 10 mg/kg, route oral
# Test context: plasma
Please assign rule not met whenever AUC(0-t) at 4 h is at or above 2 µM·h, and rule met whenever it is below.

Smiles representation: CCNC(=O)c1cn2ncnc(Nc3cc(C(=O)NOC)ccc3C)c2c1C
Group label: rule met

Smiles representation: CCCNC(=O)c1cn2ncnc(Nc3cc(C(=O)NOC)ccc3C)c2c1C
Group label: rule not met

Smiles representation: CONC(=O)c1ccc(C)c(Nc2ncnn3cc(C(=O)NC(C)C)c(C)c23)c1
Group label: rule not met

Smiles representation: CONC(=O)c1ccc(C)c(Nc2ncnn3cc(C(=O)N[C@@H](C)c4ccccc4)c(C)c23)c1
Group label: rule not met

Smiles representation: CC[C@H](C)NC(=O)c1cn2ncnc(Nc3cc(C(=O)NOC)ccc3C)c2c1C
Group label: rule not met

Smiles representation: CCCNC(=O)c1cn2ncnc(Nc3cc(NC(=O)OCC)ccc3C)c2c1C
Group label: rule met

Smiles representation: CONC(=O)c1ccc(C)c(Nc2ncnn3cc(C(=O)NCc4ccccn4)c(C)c23)c1
Group label: rule not met
